- system under test: apTKRPR-B (Aplysia californica, UniProt A0AAU7STS1)
- Sequence (A0AAU7STS1 1-447): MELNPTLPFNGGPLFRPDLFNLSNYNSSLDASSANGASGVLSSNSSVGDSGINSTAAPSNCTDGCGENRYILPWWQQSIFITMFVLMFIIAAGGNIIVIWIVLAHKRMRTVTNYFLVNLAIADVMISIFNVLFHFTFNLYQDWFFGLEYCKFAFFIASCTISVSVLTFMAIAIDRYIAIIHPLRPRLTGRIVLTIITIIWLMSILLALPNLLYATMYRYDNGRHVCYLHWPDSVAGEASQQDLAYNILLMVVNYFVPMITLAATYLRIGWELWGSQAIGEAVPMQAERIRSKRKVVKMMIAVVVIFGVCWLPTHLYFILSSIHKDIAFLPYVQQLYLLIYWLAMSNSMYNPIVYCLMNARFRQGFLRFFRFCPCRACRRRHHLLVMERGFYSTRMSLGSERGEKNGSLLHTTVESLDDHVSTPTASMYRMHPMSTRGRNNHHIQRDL
- method summary: IP1 accumulation assay, CHO-K1 cells transiently expressing apTKRPR-B
- Type: cell-based
Non-standard residues stand in square brackets, D forms with d. Residues, ends and D or L forms follow the SMILES beside them. pGlu = O=C1CC[C@@H](C(=O)O)N1
Measured pEC50, listed per entry.
Entry type: numeric. Quantity: pEC50, the -log10 of concentration in molar units.

{"compound": "CC(C)C[C@H](NC(=O)[C@H](Cc1c[nH]cn1)NC(=O)[C@@H]1CCCN1C(=O)[C@@H]1CCC(=O)N1)C(=O)NCC(=O)N[C@@H](Cc1ccccc1)C(=O)N[C@@H](Cc1c[nH]cn1)C(=O)N[C@@H](C)C(=O)N[C@@H](CO)C(=O)N[C@@H](CCCNC(=N)N)C(N)=O [[Ala^8]apTKRP-2b] ([pGlu]PHLGFHASR-NH2)", "measured number": 8.51}

Give recorded pEC50. CC(C)C[C@H](NC(=O)[C@H](Cc1c[nH]cn1)NC(=O)[C@@H]1CCCN1C(=O)[C@@H]1CCC(=O)N1)C(=O)NCC(=O)N[C@@H](Cc1ccccc1)C(=O)N[C@@H](Cc1c[nH]cn1)C(=O)NCC(=O)N[C@@H](C)C(=O)N[C@@H](CCCNC(=N)N)C(N)=O [[Ala^9]apTKRP-2b] ([pGlu]PHLGFHGAR-NH2) 7.76
